B1: POU domain, class 6, transcription factor 2, residues 609 to 663; numbered along this chain, P78424 (parent)
chain: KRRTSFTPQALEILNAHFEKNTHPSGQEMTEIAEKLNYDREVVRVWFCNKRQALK

# Variants of: B1
# protocol: abundance fitness (aPCA) (normalised: wild type 0, dead -1); higher = more abundant; growth selection in yeast, the domain comes from the species named
# experimental.setup: Homo sapiens
Would you kindly list abundance fitness for each of these variants?
Numbers only.

Provide abundance fitness values for the following items, in order.
1. Q9H
2. K1E
3. A16H
4. N37I
5. R51Q
6. T22S

-0.049
-0.632
0.044
-0.326
-0.031
0.003
